Entries with reported pIC50 on full length p300 (Homo sapiens (Human))
Sequence (Q09472 whole entry): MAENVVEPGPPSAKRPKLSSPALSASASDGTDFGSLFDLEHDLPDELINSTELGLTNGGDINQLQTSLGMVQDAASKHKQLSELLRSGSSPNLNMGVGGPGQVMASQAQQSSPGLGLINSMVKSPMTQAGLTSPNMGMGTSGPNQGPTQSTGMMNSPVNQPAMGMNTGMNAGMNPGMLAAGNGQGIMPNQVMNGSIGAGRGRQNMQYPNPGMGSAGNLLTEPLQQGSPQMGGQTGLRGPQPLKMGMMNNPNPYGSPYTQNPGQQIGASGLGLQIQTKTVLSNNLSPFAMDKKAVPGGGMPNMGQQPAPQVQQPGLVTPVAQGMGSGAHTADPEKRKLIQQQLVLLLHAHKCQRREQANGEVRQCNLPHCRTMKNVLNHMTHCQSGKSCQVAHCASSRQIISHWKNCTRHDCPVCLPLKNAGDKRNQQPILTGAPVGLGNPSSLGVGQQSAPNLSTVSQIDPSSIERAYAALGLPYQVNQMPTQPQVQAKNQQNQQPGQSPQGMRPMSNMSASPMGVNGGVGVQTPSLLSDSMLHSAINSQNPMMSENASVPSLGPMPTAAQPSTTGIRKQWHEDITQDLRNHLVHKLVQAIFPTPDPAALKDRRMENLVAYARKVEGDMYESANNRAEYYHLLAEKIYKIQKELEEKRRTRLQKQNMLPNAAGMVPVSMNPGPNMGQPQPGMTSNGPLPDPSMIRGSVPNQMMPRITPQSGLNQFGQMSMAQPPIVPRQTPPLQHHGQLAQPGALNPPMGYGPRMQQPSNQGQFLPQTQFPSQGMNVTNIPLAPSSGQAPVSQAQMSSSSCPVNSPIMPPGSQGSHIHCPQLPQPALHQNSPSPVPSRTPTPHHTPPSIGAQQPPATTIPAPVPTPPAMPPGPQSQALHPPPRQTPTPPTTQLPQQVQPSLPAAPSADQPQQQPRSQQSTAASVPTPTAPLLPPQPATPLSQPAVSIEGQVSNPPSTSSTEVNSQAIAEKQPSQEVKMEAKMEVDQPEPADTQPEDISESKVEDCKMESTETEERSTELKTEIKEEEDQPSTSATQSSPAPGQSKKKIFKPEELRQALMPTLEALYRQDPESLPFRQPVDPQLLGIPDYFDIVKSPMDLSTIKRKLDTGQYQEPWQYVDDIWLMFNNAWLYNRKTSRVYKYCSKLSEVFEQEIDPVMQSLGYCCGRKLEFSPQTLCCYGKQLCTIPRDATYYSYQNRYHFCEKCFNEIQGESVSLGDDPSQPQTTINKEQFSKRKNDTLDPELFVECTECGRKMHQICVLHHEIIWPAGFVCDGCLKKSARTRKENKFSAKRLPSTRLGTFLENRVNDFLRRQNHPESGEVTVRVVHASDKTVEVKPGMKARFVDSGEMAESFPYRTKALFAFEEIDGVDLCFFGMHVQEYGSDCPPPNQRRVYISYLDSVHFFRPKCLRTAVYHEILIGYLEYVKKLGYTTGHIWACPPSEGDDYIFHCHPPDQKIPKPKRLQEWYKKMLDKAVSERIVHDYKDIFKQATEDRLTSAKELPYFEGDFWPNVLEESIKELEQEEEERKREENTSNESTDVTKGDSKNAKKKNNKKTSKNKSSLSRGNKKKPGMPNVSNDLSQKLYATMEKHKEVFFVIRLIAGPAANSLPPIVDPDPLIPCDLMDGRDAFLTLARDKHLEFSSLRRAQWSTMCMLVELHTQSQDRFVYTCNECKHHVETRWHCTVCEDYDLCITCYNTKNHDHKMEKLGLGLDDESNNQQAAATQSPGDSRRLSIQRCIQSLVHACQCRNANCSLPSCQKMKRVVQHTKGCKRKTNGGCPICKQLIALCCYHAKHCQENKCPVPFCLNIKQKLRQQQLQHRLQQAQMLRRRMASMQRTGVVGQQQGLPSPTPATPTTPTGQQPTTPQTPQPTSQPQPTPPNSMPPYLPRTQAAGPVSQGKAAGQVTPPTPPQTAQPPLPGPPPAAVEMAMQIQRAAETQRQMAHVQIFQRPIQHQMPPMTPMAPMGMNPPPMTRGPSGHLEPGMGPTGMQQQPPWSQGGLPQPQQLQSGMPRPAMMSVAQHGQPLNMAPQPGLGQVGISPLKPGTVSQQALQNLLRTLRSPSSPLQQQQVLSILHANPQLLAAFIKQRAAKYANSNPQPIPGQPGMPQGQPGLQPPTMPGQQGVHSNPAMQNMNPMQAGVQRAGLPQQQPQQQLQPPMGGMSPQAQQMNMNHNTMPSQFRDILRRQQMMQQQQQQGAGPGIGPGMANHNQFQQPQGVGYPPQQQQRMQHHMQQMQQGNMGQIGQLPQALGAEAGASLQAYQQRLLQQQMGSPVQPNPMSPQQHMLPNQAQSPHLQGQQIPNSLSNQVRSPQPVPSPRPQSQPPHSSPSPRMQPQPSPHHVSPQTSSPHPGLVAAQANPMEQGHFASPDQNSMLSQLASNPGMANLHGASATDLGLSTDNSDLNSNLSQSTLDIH
pIC50: −log10 of the molar value.

{"Compound": "C[C@H](CNC(C(=O)Nc1ccc(C2CC(=O)N(C)C2)cn1)c1ccccc1)c1ccc(C#N)cc1 (single isomer, unassigned) [109 Isomer 4]", "pIC50": 8.48}
{"Compound": "CC(CNC(C(=O)Nc1ccc(-c2cnn(C(F)F)c2)cn1)c1cnn(C)c1)c1ccc(C#N)cc1 (single isomer, unassigned) [128 Isomer 4]", "pIC50": "> 8.49"}
{"Compound": "CC(=O)N1CCN(c2ccc(NC(=O)C(NC[C@@H](C)c3ccc(C#N)cc3)c3cccc(F)c3)nc2)CC1 (single isomer, unassigned) [135 Isomer 2]", "pIC50": "> 8.49"}
{"Compound": "Cn1cc(-c2ccc(NC(=O)C(NCC(c3ccc(C#N)cc3)C(F)(F)F)c3ccccc3)nc2)cn1 (single isomer, unassigned) [149 Isomer 2]", "pIC50": "> 8.49"}
{"Compound": "Cc1ccc(CCNC(C(=O)Nc2ccc(-c3cnn(C)c3)cn2)c2ccccc2)cc1 (single isomer, unassigned) [48 Isomer 1]", "pIC50": "> 8.70"}
{"Compound": "CN1CCN(c2ccc(NC(=O)C(NCCc3ccc(C#N)cc3)c3ccccc3)nc2)CC1=O (single isomer, unassigned) [44 Isomer 2]", "pIC50": 8.58}

Cited source for all entries: patent US11274090B2
